Consider the following compounds; for each one, report its MIC.
system: Candida albicans; assay: Antimicrobial activity against Candida albicans ATCC 14053 after 17 to 20 hrs by serial dilution method; type: functional
Where a SMILES comes first, the peptide text is derived from it. The star is where a group is joined. Stearoyl = CCCCCCCCCCCCCCCCCC(=O)*; Myristoyl = CCCCCCCCCCCCCC(=O)*; Decanoyl = CCCCCCCCCC(=O)*

Query: MIC; subject: CCCCCCCCCC(=O)N[C@@H](CCCCN)C(=O)N[C@@H](CCCCN)C(=O)N[C@H](C(=O)N[C@@H](CCCNC(=N)N)C(=O)N[C@@H](Cc1c[nH]c2ccccc12)C(=O)N[C@@H](CCCNC(=N)N)C(N)=O)[C@@H](C)CC (Decanoyl-KKIRWR-NH2)
> 62.5 µg/mL

Query: MIC; subject: CCCCCCCCCCCCCCCCCC(=O)N[C@@H](CCCCN)C(=O)N[C@@H](CCCCN)C(=O)N[C@H](C(=O)N[C@@H](CCCNC(=N)N)C(=O)N[C@@H](Cc1c[nH]c2ccccc12)C(=O)N[C@@H](CCCNC(=N)N)C(N)=O)[C@@H](C)CC (Stearoyl-KKIRWR-NH2)
> 62.5 µg/mL

Query: MIC; subject: CCCCCCCCCC(=O)N[C@@H](CCCNC(=N)N)C(=O)N[C@@H](CCCCN)C(=O)N[C@@H](Cc1c[nH]c2ccccc12)C(=O)N[C@@H](Cc1c[nH]c2ccccc12)C(=O)N[C@@H](CCCCN)C(N)=O (Decanoyl-RKWWK-NH2)
15.6 µg/mL

Query: MIC; subject: CCCCCCCCCCCCCC(=O)N[C@@H](CCCCN)C(=O)N[C@@H](CCCCN)C(=O)N[C@@H](Cc1c[nH]c2ccccc12)C(=O)N[C@@H](CCCCN)C(N)=O (Myristoyl-KKWK-NH2)
> 62.5 µg/mL

Query: MIC; subject: CCCCCCCCCC(=O)N[C@@H](CCCNC(=N)N)C(=O)N[C@H](C(=O)N[C@@H](CCCCN)C(=O)N[C@@H](Cc1c[nH]c2ccccc12)C(=O)N[C@@H](CCCCN)C(N)=O)[C@@H](C)CC (Decanoyl-RIKWK-NH2)
> 62.5 µg/mL

Query: MIC; subject: CCCCCCCCCCCCCC(=O)N[C@@H](CCCNC(=N)N)C(=O)N[C@@H](Cc1c[nH]c2ccccc12)C(=O)N[C@@H](CCCNC(=N)N)C(N)=O (Myristoyl-Arg-Trp-Arg-NH2)
> 62.5 µg/mL

Query: MIC; subject: CCCCCCCCCCCCCC(=O)N[C@@H](CCCNC(=N)N)C(=O)N[C@@H](Cc1c[nH]c2ccccc12)C(=O)N[C@@H](Cc1c[nH]c2ccccc12)C(=O)N[C@@H](CCCNC(=N)N)C(N)=O (Myristoyl-RWWR-NH2)
> 62.5 µg/mL

Query: MIC; subject: CCCCCCCCCC(=O)N[C@@H](CCCNC(=N)N)C(=O)N[C@@H](Cc1c[nH]c2ccccc12)C(=O)N[C@@H](Cc1c[nH]c2ccccc12)C(=O)N[C@@H](CCCNC(=N)N)C(N)=O (Decanoyl-RWWR-NH2)
15.6 µg/mL

Query: MIC; subject: CCCCCCCCCCCCCCCCCC(=O)N[C@@H](CCCCN)C(=O)N[C@H](C(=O)N[C@@H](CCCCN)C(=O)N[C@@H](CCCNC(=N)N)C(=O)N[C@@H](Cc1c[nH]c2ccccc12)C(=O)N[C@@H](Cc1c[nH]c2ccccc12)C(=O)N[C@@H](CCCNC(=N)N)C(N)=O)[C@@H](C)CC (Stearoyl-KIKRWWR-NH2)
> 62.5 µg/mL

Query: MIC; subject: CCCCCCCCCCCCCC(=O)N[C@@H](CCCCN)C(=O)N[C@H](C(=O)N[C@@H](CCCCN)C(=O)N[C@@H](CCCNC(=N)N)C(=O)N[C@@H](Cc1c[nH]c2ccccc12)C(=O)N[C@@H](Cc1c[nH]c2ccccc12)C(=O)N[C@@H](CCCNC(=N)N)C(N)=O)[C@@H](C)CC (Myristoyl-KIKRWWR-NH2)
> 62.5 µg/mL

Query: MIC; subject: CCCCCCCCCCCCCC(=O)N[C@@H](CCCNC(=N)N)C(=O)N[C@@H](Cc1c[nH]c2ccccc12)C(=O)N[C@@H](CCCNC(=N)N)C(=O)N[C@@H](Cc1c[nH]c2ccccc12)C(N)=O (Myristoyl-RWRW-NH2)
> 62.5 µg/mL

Query: MIC; subject: CCCCCCCCCCCCCCCCCC(=O)N[C@@H](CCCCN)C(=O)N[C@@H](Cc1c[nH]c2ccccc12)C(=O)N[C@@H](CCCCN)C(=O)N[C@@H](Cc1c[nH]c2ccccc12)C(N)=O (Stearoyl-KWKW-NH2)
> 62.5 µg/mL

Query: MIC; subject: CCCCCCCCCCCCCCCCCC(=O)N[C@@H](CCCCN)C(=O)N[C@@H](CCCCN)C(=O)N[C@@H](Cc1c[nH]c2ccccc12)C(=O)N[C@@H](Cc1c[nH]c2ccccc12)C(N)=O (Stearoyl-KKWW-NH2)
> 62.5 µg/mL

Query: MIC; subject: CCCCCCCCCC(=O)N[C@@H](CCCCN)C(=O)N[C@H](C(=O)N[C@@H](CCCCN)C(=O)N[C@@H](CCCNC(=N)N)C(=O)N[C@@H](Cc1c[nH]c2ccccc12)C(=O)N[C@@H](CCCNC(=N)N)C(N)=O)[C@@H](C)CC (Decanoyl-KIKRWR-NH2)
> 62.5 µg/mL

Query: MIC; subject: CCCCCCCCCCCCCC(=O)N[C@@H](CCCCN)C(=O)N[C@H](C(=O)N[C@@H](CCCNC(=N)N)C(=O)N[C@@H](Cc1c[nH]c2ccccc12)C(=O)N[C@@H](Cc1c[nH]c2ccccc12)C(=O)N[C@@H](CCCNC(=N)N)C(N)=O)[C@@H](C)CC (Myristoyl-KIRWWR-NH2)
> 62.5 µg/mL

Query: MIC; subject: CCCCCCCCCCCCCCCCCC(=O)N[C@@H](CCCNC(=N)N)C(=O)N[C@@H](Cc1c[nH]c2ccccc12)C(=O)N[C@@H](CCCNC(=N)N)C(=O)N[C@@H](Cc1c[nH]c2ccccc12)C(N)=O (Stearoyl-RWRW-NH2)
> 62.5 µg/mL
